target: HLA-B*15:01; assay: IEDB peptide-MHC binding, purified MHC/competitive/fluorescence; filed as Kd, often an IC50 or EC50 that approximates it; bounds were set here for any values at or beyond the usual limits of such assays; settings: source organism: Giardia lamblia ATCC 50803

chain: STTTCEAGV
Kd: ≥ 20 µM

----------
biological target: HLA-B*15:01; experiment: IEDB peptide-MHC binding, purified MHC/direct/fluorescence; filed as Kd, often an IC50 or EC50 that approximates it; bounds were set here for any values at or beyond the usual limits of such assays; conditions: source organism: Lake Victoria marburgvirus - Popp
pKd: −log10 of the molar value.

chain: FLMRNAIQY
pKd: 6.73

----------
target: HLA-A*68:01; experiment: IEDB peptide-MHC binding, purified MHC/competitive/radioactivity; filed as Kd, often an IC50 or EC50 that approximates it; bounds were set here for any values at or beyond the usual limits of such assays; settings: source organism: Mammarenavirus whitewaterense
pKd: −log10 of the molar value.

chain: SLSPNDTTWI
measured on: HLA-A*68:01
pKd: ≤ 4.15

----------
target: HLA-B*51:01; assay: IEDB peptide-MHC binding, purified MHC/competitive/radioactivity; filed as Kd, often an IC50 or EC50 that approximates it; bounds were set here for any values at or beyond the usual limits of such assays; settings: source organism: Mammarenavirus brazilense
pKd: −log10 of the molar value.
quantity: pKd

chain: LPTSIVVPI
value observed: 7.12

----------
Parameter pKd: see the listing below.
biological target: HLA-A*03:01; experiment: IEDB peptide-MHC binding, purified MHC/competitive/radioactivity; filed as Kd, often an IC50 or EC50 that approximates it; bounds were set here for any values at or beyond the usual limits of such assays; details: source organism: Dengue virus 3 Martinique/1243/1999
pKd: −log10 of the molar value.
quantity: pKd

chain: VLARWGTFK
value observed: 8.51
//
chain: GIALGLMALK
value observed: 6.66
//
chain: MLSIINKRKK
value observed: 6.28
//
chain: LALGFFLRK
value observed: 8.48
//
chain: GSCVYNMMGK
value observed: 6.98

----------
target: HLA-A*01:01; assay: IEDB peptide-MHC binding, purified MHC/competitive/fluorescence; bounds were set here for any values at or beyond the usual limits of such assays; conditions: source organism: Homo sapiens

chain: SLMASSPTSI
IC50: ≥ 20 µM
--
chain: YPDPVIKV
IC50: ≥ 20 µM

----------
biological target: HLA-B*53:01; assay: IEDB peptide-MHC binding, purified MHC/competitive/radioactivity; filed as Kd, often an IC50 or EC50 that approximates it; bounds were set here for any values at or beyond the usual limits of such assays; settings: source organism: Mammarenavirus machupoense

chain: MLNNSLYYM
measure unit: µM
Kd: 9.77

----------
target: HLA-B*27:05; assay: IEDB peptide-MHC binding, purified MHC/direct/fluorescence; filed as Kd, often an IC50 or EC50 that approximates it; bounds were set here for any values at or beyond the usual limits of such assays; details: source organism: Shigella dysenteriae
quantity: Kd

chain: TTFPVNGGY
quantity: Kd
value observed: ≥ 20 µM

----------
molecular target: HLA-B*39:01; test: IEDB peptide-MHC binding, purified MHC/competitive/fluorescence; filed as Kd, often an IC50 or EC50 that approximates it; bounds were set here for any values at or beyond the usual limits of such assays; conditions: source organism: Burkholderia mallei SAVP1
quantity: Kd

chain: RFNAIWFNH
measured on: HLA-B*39:01
value observed: ≥ 20 µM

----------
biological target: HLA-A*24:02; assay: IEDB peptide-MHC binding, purified MHC/competitive/fluorescence; filed as Kd, often an IC50 or EC50 that approximates it; bounds were set here for any values at or beyond the usual limits of such assays; settings: source organism: Pseudomonas aeruginosa UCBPP-PA14
pKd: −log10 of the molar value.
quantity: pKd

chain: FLDDASNSA
measured on: HLA-A*24:02
value observed: ≤ 4.70

----------
molecular target: HLA-A*02:12; test: IEDB peptide-MHC binding, purified MHC/direct/fluorescence; filed as Kd, often an IC50 or EC50 that approximates it; bounds were set here for any values at or beyond the usual limits of such assays; details: source organism: Salmonella enterica subsp. enterica serovar Typhimurium str. LT2

chain: FTGEYLLRL
Kd: 1.04 µM

----------
biological target: HLA-A*29:02; assay: IEDB peptide-MHC binding, purified MHC/competitive/fluorescence; filed as Kd, often an IC50 or EC50 that approximates it; bounds were set here for any values at or beyond the usual limits of such assays; settings: source organism: Bacillus anthracis str. A0488

chain: KQGDVFYTA
Kd: ≥ 20 µM

----------
Parameter pKd: see the listing below.
biological target: HLA-A*02:16; experiment: IEDB peptide-MHC binding, purified MHC/direct/fluorescence; filed as Kd, often an IC50 or EC50 that approximates it; bounds were set here for any values at or beyond the usual limits of such assays; conditions: source organism: Cryptosporidium parvum Iowa II
pKd: −log10 of the molar value.
quantity: pKd

chain: DHIPIINTL
measured on: HLA-A*02:16
quantity: pKd
value observed: ≤ 4.70

chain: ILTRLALFF
measured on: HLA-A*02:16
quantity: pKd
value observed: ≤ 4.70

----------
molecular target: HLA-A*01:01; assay: IEDB peptide-MHC binding, purified MHC/competitive/radioactivity; filed as Kd, often an IC50 or EC50 that approximates it; bounds were set here for any values at or beyond the usual limits of such assays; settings: source organism: Mammarenavirus guanaritoense
pKd: −log10 of the molar value.

chain: FYSEESPTEY
pKd: 6.72

----------
molecular target: HLA-A*02:03; experiment: IEDB peptide-MHC binding, purified MHC/competitive/radioactivity; filed as Kd, often an IC50 or EC50 that approximates it; bounds were set here for any values at or beyond the usual limits of such assays; conditions: source organism: Lymphocytic choriomeningitis virus (strain Armstrong)
quantity: Kd (nM)

chain: RNHLRDLMGV
measured on: HLA-A*02:03
quantity: Kd
value observed: 733
--
chain: LSAEELMSL
measured on: HLA-A*02:03
quantity: Kd
value observed: 705

----------
target: HLA-A*02:11; experiment: IEDB peptide-MHC binding, purified MHC/direct/fluorescence; filed as Kd, often an IC50 or EC50 that approximates it; bounds were set here for any values at or beyond the usual limits of such assays; settings: source organism: Mycobacterium tuberculosis str. Haarlem
pKd: −log10 of the molar value.
quantity: pKd

chain: WASGVPAAT
measured on: HLA-A*02:11
value observed: ≤ 4.70

----------
molecular target: HLA-B*45:06; assay: IEDB peptide-MHC binding, purified MHC/competitive/fluorescence; filed as Kd, often an IC50 or EC50 that approximates it; bounds were set here for any values at or beyond the usual limits of such assays; settings: source organism: Mycobacterium tuberculosis H37Ra

chain: FPRYPLNVL
Kd: ≥ 5 µM

----------
molecular target: HLA-A*29:02; assay: IEDB peptide-MHC binding, purified MHC/direct/fluorescence; filed as Kd, often an IC50 or EC50 that approximates it; bounds were set here for any values at or beyond the usual limits of such assays; details: source organism: Mycobacterium tuberculosis C
quantity: Kd

chain: FPRYPLNVL
value observed: ≥ 20 µM

----------
target: HLA-A*01:01; assay: IEDB peptide-MHC binding, purified MHC/direct/fluorescence; filed as Kd, often an IC50 or EC50 that approximates it; bounds were set here for any values at or beyond the usual limits of such assays; conditions: source organism: Escherichia coli 536
pKd: −log10 of the molar value.
quantity: pKd

chain: RMYGISPWT
quantity: pKd
value observed: ≤ 4.70

----------
target: HLA-B*18:01; test: IEDB peptide-MHC binding, purified MHC/direct/fluorescence; filed as Kd, often an IC50 or EC50 that approximates it; bounds were set here for any values at or beyond the usual limits of such assays; conditions: source organism: Mycobacterium tuberculosis
Parameter Kd: see the listing below.

chain: QINELHHSK
Kd: ≥ 20 µM
--
chain: ALFDRPAFK
Kd: ≥ 20 µM

----------
target: HLA-A*69:01; assay: IEDB peptide-MHC binding, purified MHC/direct/fluorescence; filed as Kd, often an IC50 or EC50 that approximates it; bounds were set here for any values at or beyond the usual limits of such assays; settings: source organism: Corynebacterium glutamicum
quantity: Kd (nM)

chain: ITWETPMIW
quantity: Kd
measure unit: nM
value observed: 507

----------
target: HLA-B*15:01; assay: IEDB peptide-MHC binding, purified MHC/competitive/radioactivity; filed as Kd, often an IC50 or EC50 that approximates it; bounds were set here for any values at or beyond the usual limits of such assays; settings: source organism: Dengue virus 1 Singapore/S275/1990
quantity: Kd (nM)

chain: TLKGMSYVM
measure unit: nM
value observed: 17.6

----------
target: HLA-A*26:02; experiment: IEDB peptide-MHC binding, purified MHC/direct/fluorescence; filed as Kd, often an IC50 or EC50 that approximates it; bounds were set here for any values at or beyond the usual limits of such assays; conditions: source organism: Mycobacterium tuberculosis str. Haarlem

chain: ALFDRPAFK
Kd: ≥ 20 µM
